Value source: ChEMBL document CHEMBL1122663

Molecular target: 2-5A-dependent ribonuclease (Mus musculus) (UniProt Q05921)
Experiment: Molar concentration needed to give 50% prevention of 2-5A (Adenosine dependent endoribonuclease)
MEASUREMENT_KIND: Concentration
# answer = number (no unit)

Notebook: `Nc1ncnc2c1ncn2[C@@H]1O[C@H](COP(=O)(O)O[C@@H]2[C@H](O)[C@@H](COP(=O)(O)O[C@@H]3[C@H](O)[C@@H](COP(=O)(O)O[C@@H]4[C@H](O)[C@@H](COP(=O)(O)O)O[C@H]4n4cnc5c(N)ncnc54)O[C@H]3n3cnc4c(N)ncnc43)O[C@H]2n2cnc3c(N)ncnc32)[C@@H](O)[C@H]1O` , Concentration read as 1e-06

Notebook: Nc1ncnc2c1ncn2C1O[C@H](COP(=O)(O)O[C@H]2C(n3cnc4c(N)ncnc43)O[C@H](COP(=O)(O)O[C@H]3C(n4cnc5c(N)ncnc54)O[C@H](COP(=O)(O)O[C@H]4C(n5cnc6c(N)ncnc65)O[C@H](COP(=O)(O)O[C@H]5C(n6cnc7c(N)ncnc76)O[C@H](COP(=O)(O)O)[C@H]5O)[C@H]4O)[C@H]3O)[C@H]2O)[C@@H](O)[C@H]1O (some centres not stated) , Concentration read as 5e-07

* * *

Target: 2-5A-dependent ribonuclease (Mus musculus)
Sequence (whole entry): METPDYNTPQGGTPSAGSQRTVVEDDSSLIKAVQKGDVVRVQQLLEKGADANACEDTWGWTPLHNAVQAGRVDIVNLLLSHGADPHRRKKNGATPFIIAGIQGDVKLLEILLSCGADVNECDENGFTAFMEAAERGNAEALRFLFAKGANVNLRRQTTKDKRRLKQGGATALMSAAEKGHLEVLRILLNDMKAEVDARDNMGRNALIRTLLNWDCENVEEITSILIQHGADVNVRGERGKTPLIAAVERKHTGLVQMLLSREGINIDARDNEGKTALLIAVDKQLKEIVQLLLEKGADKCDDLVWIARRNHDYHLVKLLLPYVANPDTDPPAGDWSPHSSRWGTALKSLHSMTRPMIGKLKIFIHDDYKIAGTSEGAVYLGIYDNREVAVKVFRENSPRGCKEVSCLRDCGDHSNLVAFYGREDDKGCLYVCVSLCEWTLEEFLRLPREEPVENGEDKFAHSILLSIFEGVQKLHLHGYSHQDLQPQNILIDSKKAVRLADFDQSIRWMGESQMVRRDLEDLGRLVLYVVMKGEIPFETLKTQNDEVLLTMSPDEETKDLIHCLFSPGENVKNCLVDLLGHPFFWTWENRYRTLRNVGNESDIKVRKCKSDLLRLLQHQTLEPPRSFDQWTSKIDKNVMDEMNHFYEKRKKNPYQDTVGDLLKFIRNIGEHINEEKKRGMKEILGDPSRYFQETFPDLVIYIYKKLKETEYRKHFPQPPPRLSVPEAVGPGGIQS
Assay: Molar concentration required to displace 50% of the radiolabeled probe from 2-5A (Adenosine dependent endoribonuclease) in endonuclease-nitrocellulose complex
Assign Concentration to each entry below.
# answer = number (no unit)

Notebook: O=c1ccn(C2O[C@H](COP(=O)(O)O[C@H]3C(n4ccc(=O)[nH]c4=O)O[C@H](COP(=O)(O)O[C@H]4C(n5ccc(=O)[nH]c5=O)O[C@H](COP(=O)(O)O)[C@H]4O)[C@H]3O)[C@@H](O)[C@H]2O)c(=O)[nH]1 (some centres undefined) , Concentration read as 1.1e-06

Notebook: Nc1ccn(C2O[C@H](COP(=O)(O)O[C@H]3C(n4ccc(N)nc4=O)O[C@H](COP(=O)(O)O[C@H]4C(n5ccc(N)nc5=O)O[C@H](COP(=O)(O)O)[C@H]4O)[C@H]3O)[C@@H](O)[C@H]2O)c(=O)n1 (some centres undefined) , Concentration read as 3.3e-06

Notebook: `Nc1ncnc2c1ncn2[C@@H]1O[C@H](COP(=O)(O)O[C@@H]2[C@H](O)[C@@H](COP(=O)(O)O[C@@H]3[C@H](O)[C@@H](COP(=O)(O)O[C@@H]4[C@H](O)[C@@H](COP(=O)(O)O)O[C@H]4n4cnc5c(N)ncnc54)O[C@H]3n3cnc4c(N)ncnc43)O[C@H]2n2cnc3c(N)ncnc32)[C@@H](O)[C@H]1O` , Concentration read as 7e-10

Notebook: `Nc1ncnc2c1ncn2[C@@H]1O[C@H](COP(=O)(O)O[C@@H]2[C@H](O)[C@@H](COP(=O)(O)O[C@@H]3[C@H](O)[C@@H](COP(=O)(O)OP(=O)(O)OP(=O)(O)O)O[C@H]3n3cnc4c(N)ncnc43)O[C@H]2n2cnc3c(N)ncnc32)[C@@H](O)[C@H]1O` , Concentration read as 5e-10

* * *

Target: 2-5A-dependent ribonuclease (Mus musculus)
Sequence (whole entry): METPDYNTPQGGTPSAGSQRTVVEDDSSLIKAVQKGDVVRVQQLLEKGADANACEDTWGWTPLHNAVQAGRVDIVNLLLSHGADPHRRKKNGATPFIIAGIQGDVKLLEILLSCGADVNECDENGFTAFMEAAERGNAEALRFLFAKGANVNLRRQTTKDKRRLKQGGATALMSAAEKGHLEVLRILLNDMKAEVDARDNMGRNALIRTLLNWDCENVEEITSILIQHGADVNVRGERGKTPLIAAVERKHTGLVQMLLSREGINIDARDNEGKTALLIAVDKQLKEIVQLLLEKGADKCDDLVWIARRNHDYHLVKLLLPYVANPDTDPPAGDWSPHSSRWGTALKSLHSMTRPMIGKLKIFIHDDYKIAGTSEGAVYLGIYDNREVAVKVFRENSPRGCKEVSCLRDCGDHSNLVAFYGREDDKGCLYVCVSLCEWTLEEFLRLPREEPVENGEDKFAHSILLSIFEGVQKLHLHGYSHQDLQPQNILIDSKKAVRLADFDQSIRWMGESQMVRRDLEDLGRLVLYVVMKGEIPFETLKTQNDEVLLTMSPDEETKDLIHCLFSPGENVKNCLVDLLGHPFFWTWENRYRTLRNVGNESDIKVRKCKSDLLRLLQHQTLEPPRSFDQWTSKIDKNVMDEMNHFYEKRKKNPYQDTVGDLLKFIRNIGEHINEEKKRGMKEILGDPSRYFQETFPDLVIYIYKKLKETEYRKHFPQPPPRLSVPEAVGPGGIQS
Assay: Molar concentration required to displace 50% of the radiolabeled probe from 2-5A (Adenosine dependent endoribonuclease) in endonuclease-nitrocellulose complex
MEASUREMENT_KIND: Concentration
# answer = number (no unit)

Notebook: `Nc1ncnc2c1ncn2[C@@H]1O[C@H](COP(=O)(O)O[C@@H]2[C@H](O)[C@@H](COP(=O)(O)O)O[C@H]2n2cnc3c(N)ncnc32)[C@@H](OP(=O)(O)O)[C@H]1O` , Concentration read as 4e-06

Notebook: Nc1ncnc2c1ncn2[C@@H]1O[C@H](COP(=O)(O)O[C@@H]2[C@H](O)[C@@H](COP(=O)(O)O[C@@H]3[C@H](O)[C@@H](COP(=O)(O)O)O[C@H]3n3cnc4c(N)ncnc43)O[C@H]2n2cnc3c(N)ncnc32)[C@@H](O)[C@H]1O (stereo in doubt; 2) , Concentration read as 8e-10

* * *

Target: 2-5A-dependent ribonuclease (Mus musculus) (UniProt Q05921)
Assay: Molar concentration needed to give 50% prevention of 2-5A (Adenosine dependent endoribonuclease)
MEASUREMENT_KIND: Concentration

Notebook: Nc1ncnc2c1ncn2C1OC(CO)C(O)C1OP(=O)(O)OC[C@H]1OC(n2cnc3c(N)ncnc32)[C@H](O)[C@@H]1O (stereo partly specified) , Concentration read as > 0.001

Notebook: Nc1ncnc2c1ncn2C1O[C@H](COP(=O)(O)O[C@H]2C(n3cnc4c(N)ncnc43)O[C@H](COP(=O)(O)O)[C@H]2O)[C@@H](O)[C@H]1O (stereo partly specified) , Concentration read as > 0.0002

Notebook: `Nc1ncnc2c1ncn2[C@@H]1O[C@H](COP(=O)(O)O[C@@H]2[C@H](O)[C@@H](COP(=O)(O)O[C@@H]3[C@H](O)[C@@H](CO)O[C@H]3n3cnc4c(N)ncnc43)O[C@H]2n2cnc3c(N)ncnc32)[C@@H](O)[C@H]1O` , Concentration read as > 0.0001

Notebook: O=P(O)(O)OC[C@H]1OC(n2cnc3c(O)ncnc32)[C@H](OP(=O)(O)OC[C@H]2OC(n3cnc4c(O)ncnc43)[C@H](OP(=O)(O)OC[C@H]3OC(n4cnc5c(O)ncnc54)[C@H](O)[C@@H]3O)[C@@H]2O)[C@@H]1O (stereo partly specified) , Concentration read as > 0.0001

Notebook: `Nc1ncnc2c1ncn2[C@@H]1O[C@H](COP(=O)(O)O[C@@H]2[C@H](O)[C@@H](COP(=O)(O)O[C@@H]3[C@H](O)[C@@H](COP(=O)(O)O[C@@H]4[C@H](O)[C@@H](CO)O[C@H]4n4cnc5c(N)ncnc54)O[C@H]3n3cnc4c(N)ncnc43)O[C@H]2n2cnc3c(N)ncnc32)[C@@H](O)[C@H]1O` , Concentration read as 1e-05

Notebook: O=P(O)(O)OP(=O)(O)OP(=O)(O)OCC1OC(n2cnc3c(O)ncnc32)C(OP(=O)(O)OCC2OC(n3cnc4c(O)ncnc43)C(OP(=O)(O)OC[C@H]3OC(n4cnc5c(O)ncnc54)[C@H](O)[C@@H]3O)C2O)C1O (stereo partly specified) , Concentration read as > 0.00013
